Target: dihydrodipicolinate reductase (DHPR) (Escherichia coli, UniProt P04036)
Sequence (P04036 whole entry): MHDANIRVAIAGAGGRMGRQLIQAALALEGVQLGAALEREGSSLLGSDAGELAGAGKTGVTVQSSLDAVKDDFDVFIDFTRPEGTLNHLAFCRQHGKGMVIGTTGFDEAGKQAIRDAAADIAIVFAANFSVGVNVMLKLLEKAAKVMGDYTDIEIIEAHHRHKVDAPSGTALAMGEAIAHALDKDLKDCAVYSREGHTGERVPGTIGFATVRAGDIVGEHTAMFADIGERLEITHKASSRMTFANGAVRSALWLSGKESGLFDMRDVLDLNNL
Test: DHPR kinetic assay, spectrophotometric oxidation of NADPH (340 nm)
Assay type: biochemical
Conditions: common ligand mimics, Examples 23/24 (FIG. 5, FIG. 6); read-out: IC50 for DHPR
pIC50: −log10 of the molar value.

Smiles Representation: N=C1NC(=O)C(=Cc2ccc(C(=O)O)cc2)S1
Experimental Target: dihydrodipicolinate reductase (DHPR) (Escherichia coli, UniProt P04036)
pIC50: < 4.60
--
Smiles Representation: COc1cc(O)ccc1C=C1SC(=N)NC1=O
Experimental Target: dihydrodipicolinate reductase (DHPR) (Escherichia coli, UniProt P04036)
pIC50: < 4.12
